Target: human Nav1.8 channels (Homo sapiens)
Construct: expressed in transfected cells
Sequence (Q9Y5Y9 whole entry): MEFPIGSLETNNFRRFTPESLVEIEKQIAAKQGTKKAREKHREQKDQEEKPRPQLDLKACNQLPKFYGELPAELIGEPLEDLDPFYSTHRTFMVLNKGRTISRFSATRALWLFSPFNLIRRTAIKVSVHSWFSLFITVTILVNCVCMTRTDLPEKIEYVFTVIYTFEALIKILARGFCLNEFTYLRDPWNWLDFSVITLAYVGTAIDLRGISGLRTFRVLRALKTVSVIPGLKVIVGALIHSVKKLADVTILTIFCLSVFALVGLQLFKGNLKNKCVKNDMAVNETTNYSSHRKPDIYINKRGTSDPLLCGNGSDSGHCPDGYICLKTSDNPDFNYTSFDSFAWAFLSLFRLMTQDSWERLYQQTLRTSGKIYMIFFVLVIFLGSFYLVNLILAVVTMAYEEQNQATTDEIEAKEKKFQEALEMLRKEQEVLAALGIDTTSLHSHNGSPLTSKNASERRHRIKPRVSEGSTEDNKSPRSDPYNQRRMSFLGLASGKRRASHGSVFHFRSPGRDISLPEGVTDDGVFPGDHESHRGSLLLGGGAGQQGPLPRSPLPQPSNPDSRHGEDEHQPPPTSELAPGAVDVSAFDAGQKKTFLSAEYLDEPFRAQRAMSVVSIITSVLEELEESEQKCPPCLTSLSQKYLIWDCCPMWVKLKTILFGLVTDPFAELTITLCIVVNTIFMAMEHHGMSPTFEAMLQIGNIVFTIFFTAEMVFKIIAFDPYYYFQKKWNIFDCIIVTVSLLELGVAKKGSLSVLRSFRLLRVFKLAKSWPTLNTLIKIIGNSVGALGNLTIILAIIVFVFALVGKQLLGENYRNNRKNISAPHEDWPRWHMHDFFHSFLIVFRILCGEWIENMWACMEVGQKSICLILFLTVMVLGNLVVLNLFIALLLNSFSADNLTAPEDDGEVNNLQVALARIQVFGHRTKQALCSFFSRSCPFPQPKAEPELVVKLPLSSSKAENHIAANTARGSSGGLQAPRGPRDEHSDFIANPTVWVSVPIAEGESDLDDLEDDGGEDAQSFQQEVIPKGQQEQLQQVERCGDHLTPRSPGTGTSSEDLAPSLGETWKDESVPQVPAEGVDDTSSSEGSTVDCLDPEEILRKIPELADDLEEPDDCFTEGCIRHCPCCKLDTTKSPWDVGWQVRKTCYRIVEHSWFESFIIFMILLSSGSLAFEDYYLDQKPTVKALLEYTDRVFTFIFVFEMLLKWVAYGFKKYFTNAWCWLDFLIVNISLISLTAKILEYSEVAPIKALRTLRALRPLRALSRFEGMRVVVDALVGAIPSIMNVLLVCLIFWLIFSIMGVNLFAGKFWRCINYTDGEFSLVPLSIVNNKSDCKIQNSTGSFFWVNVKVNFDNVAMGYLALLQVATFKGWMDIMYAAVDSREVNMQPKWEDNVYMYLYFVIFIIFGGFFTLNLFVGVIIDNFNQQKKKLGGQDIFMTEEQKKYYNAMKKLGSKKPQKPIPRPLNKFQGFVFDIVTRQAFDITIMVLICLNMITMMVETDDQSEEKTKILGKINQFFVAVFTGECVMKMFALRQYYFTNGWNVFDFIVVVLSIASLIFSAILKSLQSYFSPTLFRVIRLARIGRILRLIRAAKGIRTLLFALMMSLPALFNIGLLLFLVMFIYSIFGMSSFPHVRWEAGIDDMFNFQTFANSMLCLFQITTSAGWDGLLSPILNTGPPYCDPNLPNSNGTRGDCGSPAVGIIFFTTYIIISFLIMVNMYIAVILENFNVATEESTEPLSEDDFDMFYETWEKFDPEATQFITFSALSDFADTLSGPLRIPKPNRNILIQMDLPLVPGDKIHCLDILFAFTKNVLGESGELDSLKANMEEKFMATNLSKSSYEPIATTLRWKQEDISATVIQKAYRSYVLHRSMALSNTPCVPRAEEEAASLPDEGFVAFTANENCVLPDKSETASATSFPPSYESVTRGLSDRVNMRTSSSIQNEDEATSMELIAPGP
Assay: Nav1.8 Qube automated patch-clamp assay
Type: cell-based
Settings: human Nav1.8 stably expressed in HEK 293 cells; whole-cell voltage clamp, room temperature; resting or inactivated state not specified; read-out: IC50 values (nM) for Examples in the Nav1.8 Qube Assay
Protocol: Compounds were tested on human Nav1.8 and Nav1.5 channels stably expressed in human embryo kidney (HEK) 293 cells. […] For all Qube® experiments offline analysis was used to determine percent inhibition as a function of drug concentration. IC50 values were determined by fitting to the Hill equation.
In this section, each of the compounds is paired with its reported IC50.

compound | IC50 [nM]
CS(=O)(=O)n1nc(NC(=O)c2cc(C(F)(F)F)cnc2N2CCCC(F)(F)CC2)c2ccccc21 | 50
COc1cc(NC(=O)c2c(N3CCCCCC3)nc(C)c(Cl)c2C)ccn1 | 141
NS(=O)(=O)c1cc(NC(=O)c2cc(C(F)(F)F)cnc2N2CC3CC2CC3(F)F)ccn1 (single isomer, unassigned) [Example 71] | 60
O=C(Nc1cc[nH]c(=O)c1)c1cc(C(F)(F)F)cnc1N1CCCC(F)(F)CC1 | 86
NS(=O)(=O)c1cc(NC(=O)c2cc(C(F)(F)F)cnc2N2CCCC3(C2)CC3(F)F)ccn1 (single isomer, unassigned) [Example 66] | 88
NS(=O)(=O)c1cc(NC(=O)c2cccnc2N2CCC(F)(F)CC2)ccn1 | 1860
Cc1nc(N2CCOC(C(F)F)CC2)c(C(=O)Nc2ccnc(S(N)(=O)=O)c2)cc1Cl (single isomer, unassigned) [Example 116] | 32
